# Test system: MDA-MB-231
# protocol_details: normalised viability (% of control), CellTiter-Blue; higher = more viable cells (about 100 = DMSO control)
# experimental_setup: 10 nM; incubation time: 72 h
# normalised viability listing for each entry below
I only need the number, in %, no unit after it.

Query :: Reported normalised viability for CC(C)(C)c1cc(NC(=O)Nc2ccc(-c3cn4c(n3)sc3cc(OCCN5CCOCC5)ccc34)cc2)no1 : what is it?
Result :: 91.3

Query :: Reported normalised viability for CCS(=O)(=O)c1cccc(-c2cc(C(=O)NC3CCN(C)CC3)c(C)c3[nH]c4ncc(C)cc4c23)c1 : what is it?
Result :: 103

Query :: Reported normalised viability for COc1cccc2c1C(=O)c1c(O)c3c(c(O)c1C2=O)C[C@@](O)(C(C)=O)C[C@@H]3O[C@H]1C[C@H](N)[C@H](O)[C@H](C)O1 : what is it?
Result :: 85.2

Query :: Reported normalised viability for CC(=O)O[C@H]1C(=O)[C@@]2(C)[C@H]([C@H](OC(=O)c3ccccc3)[C@]3(O)C[C@H](OC(=O)[C@H](O)[C@@H](NC(=O)c4ccccc4)c4ccccc4)C(C)=C1C3(C)C)[C@]1(OC(C)=O)CO[C@@H]1C[C@@H]2O : what is it?
Result :: 35.7

* * *

# System: HCC1143
# protocol_details: normalised response (% of control), CellTox Green; higher = less cell death (100 = DMSO, 0 = benzethonium chloride kill control)
# experimental_setup: incubation time: 72 h
measure: normalised response (%)
I only need the number, in %, no unit after it.

Sample records with normalised response:
compound: Cn1c(=O)c(F)c(Nc2ccc(I)cc2F)c2c(=O)n(C[C@@H](O)CO)cnc21 [TAK-733] (100 nM)
unit_of_measure: %
normalised response: 124
--
compound: O=C(c1ccc(OCCN2CCCCC2)cc1)c1c(-c2ccc(O)cc2)sc2cc(O)ccc12 [Raloxifene] (100 nM)
unit_of_measure: %
normalised response: 99.7

# next compound below
Query :: Reported normalised response for CC(=O)O[C@H]1C(=O)[C@@]2(C)[C@H]([C@H](OC(=O)c3ccccc3)[C@]3(O)C[C@H](OC(=O)[C@H](O)[C@@H](NC(=O)c4ccccc4)c4ccccc4)C(C)=C1C3(C)C)[C@]1(OC(C)=O)CO[C@@H]1C[C@@H]2O [Paclitaxel] (1000 nM) : what is it?
Result :: 87.3

* * *

# Tested on: MDA-MB-468
# experimental_setup: 72 h
Lab note: anything with EC50, CellTiter-Blue viability below 50 nM is marked rule met; values at 50 nM or higher are marked rule not met.

Known results for compounds:
smiles_data: CC(C)C[C@H](NC(=O)[C@H](Cc1ccccc1)NC(=O)c1cnccn1)B(O)O
classification: rule met

smiles_data: CS(=O)(=O)CCNCc1ccc(-c2ccc3ncnc(Nc4ccc(OCc5cccc(F)c5)c(Cl)c4)c3c2)o1
classification: rule not met

smiles_data: COc1cccc2c1C(=O)c1c(O)c3c(c(O)c1C2=O)C[C@@](O)(C(C)=O)C[C@@H]3O[C@H]1C[C@H](N)[C@H](O)[C@H](C)O1
classification: rule not met

smiles_data: COC(=O)C[C@](O)(CCCC(C)(C)O)C(=O)O[C@@H]1C(OC)=C[C@]23CCCN2CCc2cc4c(cc2[C@H]13)OCO4
classification: rule met

Moving on to the next compound.
Query :: Strictly below 50 nM: is that where EC50, CellTiter-Blue viability of COC1=CC(c2cc3ccccc3[nH]2)=N/C1=C\c1[nH]c(C)cc1C sits?
Result :: rule not met

* * *

# System: BT-474
# protocol_details: normalised response (% of control), CellTiter-Glo; higher = more viable cells (100 = DMSO, 0 = benzethonium chloride kill control)
# experimental_setup: incubation time: 72 h
# normalised response listing for each entry below

compound: COc1cccc2c1C(=O)c1c(O)c3c(c(O)c1C2=O)C[C@@](O)(C(C)=O)C[C@@H]3O[C@H]1C[C@H](N)[C@H](O)[C@H](C)O1 [Daunorubicin] (100 nM)
normalised response: 82.5%

Query :: Enter reported normalised response observed with BT-474 for CS(=O)(=O)OCCCCOS(C)(=O)=O [Busulfan] (10 nM)
Result :: 102%

Query :: Enter reported normalised response observed with BT-474 for COC(=O)C[C@](O)(CCCC(C)(C)O)C(=O)O[C@@H]1C(OC)=C[C@]23CCCN2CCc2cc4c(cc2[C@H]13)OCO4 [Omacetaxine] (1 nM)
Result :: 106%

Query :: Enter reported normalised response observed with BT-474 for COc1ccc(C2=N[C@@H](c3ccc(Cl)cc3)[C@@H](c3ccc(Cl)cc3)N2C(=O)N2CCNC(=O)C2)c(OC(C)C)c1 [Nutlin-3] (10 nM)
Result :: 97.4%

* * *

# System: CAL-51
# experimental_setup: 72 h
Lab note: anything with EC50, CellTiter-Glo below 20 nM is marked YES; values at 20 nM or higher are marked NO.

compound: COC1=CC(c2cc3ccccc3[nH]2)=N/C1=C\c1[nH]c(C)cc1C [Obatoclax]
classification: NO
--
compound: COc1ccc(C2=N[C@@H](c3ccc(Cl)cc3)[C@@H](c3ccc(Cl)cc3)N2C(=O)N2CCNC(=O)C2)c(OC(C)C)c1 [Nutlin-3]
classification: YES
--
compound: COc1ncc(-c2ccc3nccc(-c4ccnnc4)c3c2)cc1NS(=O)(=O)c1ccc(F)cc1F
classification: NO
--
compound: C[C@@H]1C=C2C(=O)O[C@@H]3CC[C@H](C1)[C@]23O [Galiellalactone]
classification: NO
--
compound: CC(=O)O[C@H]1C(=O)[C@@]2(C)[C@H]([C@H](OC(=O)c3ccccc3)[C@]3(O)C[C@H](OC(=O)[C@H](O)[C@@H](NC(=O)c4ccccc4)c4ccccc4)C(C)=C1C3(C)C)[C@]1(OC(C)=O)CO[C@@H]1C[C@@H]2O [Paclitaxel]
classification: YES

Moving on to the next compound.
Query :: Strictly below 20 nM: is that where EC50, CellTiter-Glo of Nc1nccc(-c2c(-c3ccc(F)cc3)ncn2C2CCCCC2)n1 sits?
Result :: NO

* * *

# System: BT-474
# experimental_setup: 72 h
Lab note: anything with EC50, CellTiter-Glo below 200 nM is marked fulfilled; values at 200 nM or higher are marked not fulfilled.

Known results for compounds:
compound: Cn1cnc2c(F)c(Nc3ccc(Br)cc3F)c(C(=O)NOCCO)cc21 [MEK-162]
classification: fulfilled
--
compound: COC(=O)C[C@](O)(CCCC(C)(C)O)C(=O)O[C@@H]1C(OC)=C[C@]23CCCN2CCc2cc4c(cc2[C@H]13)OCO4 [Omacetaxine]
classification: not fulfilled
--
compound: COc1cccc2c1C(=O)c1c(O)c3c(c(O)c1C2=O)C[C@@](O)(C(C)=O)C[C@@H]3O[C@H]1C[C@H](N)[C@H](O)[C@H](C)O1 [Daunorubicin]
classification: fulfilled
--
compound: COC1=CC(c2cc3ccccc3[nH]2)=N/C1=C\c1[nH]c(C)cc1C [Obatoclax]
classification: fulfilled
--
compound: FC(F)c1nc2ccccc2n1-c1nc(N2CCOCC2)nc(N2CCOCC2)n1 [ZSTK474]
classification: not fulfilled

Moving on to the next compound.
Query :: Strictly below 200 nM: is that where EC50, CellTiter-Glo of CCS(=O)(=O)c1cccc(-c2cc(C(=O)NC3CCN(C)CC3)c(C)c3[nH]c4ncc(C)cc4c23)c1 [TAK-901] sits?
Result :: fulfilled

* * *

# normalised response listing for each entry below
# System: Hs578T
# protocol_details: normalised response (% of control), CellTiter-Glo; higher = more viable cells (100 = DMSO, 0 = benzethonium chloride kill control)
# experimental_setup: incubation time: 72 h
Kindly format the answer as number then unit.

molecule: CCOc1cc2ncc(C#N)c(Nc3ccc(OCc4ccccn4)c(Cl)c3)c2cc1NC(=O)/C=C/CN(C)C [Neratinib] (0.1 nM)
normalised response: 106%

# next molecule below
Query :: Enter reported normalised response observed with Hs578T for COC(=O)C[C@](O)(CCCC(C)(C)O)C(=O)O[C@@H]1C(OC)=C[C@]23CCCN2CCc2cc4c(cc2[C@H]13)OCO4 [Omacetaxine] (1000 nM)
Result :: 2%

* * *

# Tested on: MFM-223
# protocol_details: drug sensitivity score (DSS), CellTiter-Glo (DSS (AUC-based score)); higher = stronger drug effect (viability inhibition or cytotoxicity); extreme values may be limits of the assay
# experimental_setup: incubation time: 72 h
measure: drug sensitivity score
The response must contain the number and no unit.

Sample records with drug sensitivity score:
compound: CS(=O)(=O)CCNCc1ccc(-c2ccc3ncnc(Nc4ccc(OCc5cccc(F)c5)c(Cl)c4)c3c2)o1
observed_result: 0
//
compound: CCCC(CCC)C(=O)O
observed_result: 0
//
compound: Cn1cnc2c(F)c(Nc3ccc(Br)cc3F)c(C(=O)NOCCO)cc21
observed_result: 0
//
compound: C[C@@H]1CCN(C(=O)CC#N)C[C@@H]1N(C)c1ncnc2[nH]ccc12
observed_result: 0
//
compound: C[C@@H]1C=C2C(=O)O[C@@H]3CC[C@H](C1)[C@]23O
observed_result: 0
//
compound: CCS(=O)(=O)c1cccc(-c2cc(C(=O)NC3CCN(C)CC3)c(C)c3[nH]c4ncc(C)cc4c23)c1
observed_result: 5.76
//
compound: Cc1cc(C(C)Nc2ccccc2)c2nc(N3CCOCC3)cc(=O)n2c1 (stereo unspecified)
observed_result: 0
//
compound: COc1c(C)cnc(Cn2cnc3c(Cl)nc(N)nc32)c1C
observed_result: 13.2
//
compound: CS(=O)(=O)OCCCCOS(C)(=O)=O
observed_result: 0
//
compound: CC(C)C[C@H](NC(=O)[C@H](Cc1ccccc1)NC(=O)c1cnccn1)B(O)O
observed_result: 27.1

# next compound below
Query :: Reported drug sensitivity score for CC(=O)O[C@H]1C(=O)[C@@]2(C)[C@H]([C@H](OC(=O)c3ccccc3)[C@]3(O)C[C@H](OC(=O)[C@H](O)[C@@H](NC(=O)c4ccccc4)c4ccccc4)C(C)=C1C3(C)C)[C@]1(OC(C)=O)CO[C@@H]1C[C@@H]2O : what is it?
Result :: 16.5
